target: DNA gyrase (Escherichia coli); test: Inhibition of Escherichia coli JM109 DNA gyrase assessed as DNA triple helix formation by supercoiling assay
pIC50: −log10 of the molar value.
recorded-metric: pIC50

> print(dat)
                                        smi  reported.result
1  CO[C@@H]1[C@@H](OC(=O)c2ccc(C)[nH]2)[C@@H](O)[C@H](Oc2ccc3c(O)c(NC(=O)c4ccc(N)c(C)c4)c(=O)oc3c2C)OC1(C)C             7.36

a: CO[C@@H]1[C@@H](OC(=O)c2ccc(C)[nH]2)[C@@H](O)[C@H](Oc2ccc3c(O)c(NC(=O)/C=C/c4ccc(O)c(Cl)c4)c(=O)oc3c2)OC1(C)C
b: CCCc1cc(C(=O)Nc2c(O)c3ccc(O[C@@H]4OC(C)(C)[C@H](OC)[C@@H](O)[C@H]4OC(=O)c4ccc(C)[nH]4)c(C)c3oc2=O)ccc1O
Input pair: a , b . Output: entry with lower pIC50. Use the label to indicate which entry you chose. a
(a: 6.55, b: 6.85)

====

target: DNA gyrase subunit A (Escherichia coli K-12); experiment: Inhibition of Escherichia coli K-12 DNA gyrase A expressed in Escherichia coli DC2 assessed as compound concentration required for => 4-fold induction of luxCDABE operon by reported gene assay
recorded-metric: Activity (µM)

> print(dat)
                                        smi                             system.tested  recorded.metric  reported.result
1  CO[C@@H]1[C@@H](OC(=O)c2ccc(C)[nH]2)[C@@H](O)[C@H](Oc2ccc3c(O)c(NC(=O)/C=C/c4ccccc4)c(=O)oc3c2Cl)OC1(C)C  DNA gyrase subunit A (Escherichia coli K-12)         Activity              6.3

P: COc1cc(/C=C/C(=O)Nc2c(O)c3ccc(O[C@@H]4OC(C)(C)[C@H](OC)[C@@H](OC(=O)c5ccc(C)[nH]5)[C@H]4O)c(Cl)c3oc2=O)ccc1O
Q: CO[C@@H]1[C@@H](O)[C@@H](OC(=O)c2ccc(C)[nH]2)[C@H](Oc2ccc3c(O)c(NC(=O)c4cc(C)c(O)c(C)c4)c(=O)oc3c2Cl)OC1(C)C
R: CO[C@@H]1[C@@H](OC(=O)c2ccc(C)[nH]2)[C@@H](O)[C@H](Oc2ccc3c(O)c(NC(=O)c4ccc(N)c(C)c4)c(=O)oc3c2C)OC1(C)C
Put these in order: smallest Activity first, largest last. Response field: labels, in requested order. P, R, Q

====

molecular target: DNA gyrase subunit B (Escherichia coli, UniProt P0AES6); test: Inhibition of Escherichia coli JM109 DNA gyrase subunit B assessed as ATP hydrolysis by ATPase assay
pIC50: −log10 of the molar value.
recorded-metric: pIC50

> print(dat)
                                        smi  recorded.metric  reported.result
1  COc1cc(C(=O)Nc2c(O)c3ccc(O[C@@H]4OC(C)(C)[C@H](OC)[C@@H](OC(=O)c5ccc(C)[nH]5)[C@H]4O)c(C)c3oc2=O)ccc1O            pIC50             7.07
2  C=CCc1cc(C(=O)Nc2c(O)c3ccc(O[C@@H]4OC(C)(C)[C@H](OC)[C@@H](OC(=O)c5ccc(C)[nH]5)[C@H]4O)c(C)c3oc2=O)ccc1O            pIC50             6.94
3  CO[C@@H]1[C@@H](O)[C@@H](OC(=O)c2ccc(C)[nH]2)[C@H](Oc2ccc3c(O)c(NC(=O)c4ccccc4)c(=O)oc3c2Cl)OC1(C)C            pIC50             6.53
4  CO[C@@H]1[C@@H](OC(=O)c2ccc(C)[nH]2)[C@@H](O)[C@H](Oc2ccc3c(O)c(NC(=O)c4ccc(N)c(C)c4)c(=O)oc3c2C)OC1(C)C            pIC50             6.82

P: CO[C@@H]1[C@@H](OC(=O)c2ccc(C)[nH]2)[C@@H](O)[C@H](Oc2ccc3c(O)c(NC(=O)/C=C/c4ccc(O)c(Cl)c4)c(=O)oc3c2)OC1(C)C
Q: CO[C@@H]1[C@@H](O)[C@@H](OC(=O)c2ccc(C)[nH]2)[C@H](Oc2ccc3c(O)c(NC(=O)/C=C/c4ccccc4)c(=O)oc3c2Cl)OC1(C)C
Which numeric pIC50 is bigger, that of P or that of Q ? Use the label to indicate which entry you chose. P

====

test system: Escherichia coli; experiment: Antibacterial activity against Escherichia coli DC2 by broth microdilution method; type: functional
recorded-metric: MIC (µg/mL)

Record excerpt, results attached:
> print(dat)
                                        smi  recorded.metric  unit.descriptor  reported.result
1  C=CCc1cc(C(=O)Nc2c(O)c3ccc(O[C@@H]4OC(C)(C)[C@H](OC)[C@@H](OC(=O)c5ccc(C)[nH]5)[C@H]4O)c(C)c3oc2=O)ccc1O              MIC            µg/mL                8
2  CCCc1cc(C(=O)Nc2c(O)c3ccc(O[C@@H]4OC(C)(C)[C@H](OC)[C@@H](OC(=O)c5ccc(C)[nH]5)[C@H]4O)c(C)c3oc2=O)ccc1O              MIC            µg/mL                8
3  CO[C@@H]1[C@@H](OC(N)=O)[C@@H](O)[C@H](Oc2ccc3c(O)c(NC(=O)c4ccc(O)c(CC=C(C)C)c4)c(=O)oc3c2C)OC1(C)C              MIC            µg/mL                4

I: CO[C@@H]1[C@@H](OC(=O)c2ccc(C)[nH]2)[C@@H](O)[C@H](Oc2ccc3c(O)c(NC(=O)c4ccc(O)c(NC(=O)C(C)C)c4)c(=O)oc3c2Cl)OC1(C)C
II: CO[C@@H]1[C@@H](OC(=O)c2ccc(C)[nH]2)[C@@H](O)[C@H](Oc2ccc3c(O)c(NC(=O)c4ccc(SC)cc4)c(=O)oc3c2Cl)OC1(C)C
Input pair: I , II . Output: entry with lower MIC. Use the label to indicate which entry you chose. II
(II: 8 µg/mL, I: 16 µg/mL)

====

Reported Activity values follow for various molecules
target: DNA gyrase subunit A (Escherichia coli K-12) (UniProt P0AES4); assay: Inhibition of Escherichia coli K-12 DNA gyrase A expressed in Escherichia coli DC2 assessed as compound concentration required for => 4-fold induction of luxCDABE operon by reported gene assay

> print(dat)
                                        smi  recorded.metric  reported.result
1  C=CCc1cc(C(=O)Nc2c(O)c3ccc(O[C@@H]4OC(C)(C)[C@H](OC)[C@@H](OC(=O)c5ccc(C)[nH]5)[C@H]4O)c(C)c3oc2=O)ccc1O         Activity           1.6 µM

Now for another entry.
Notebook entry, DNA gyrase subunit A (Escherichia coli K-12) (UniProt P0AES4) assay: Activity of CO[C@@H]1[C@@H](OC(=O)c2ccc(C)[nH]2)[C@@H](O)[C@H](Oc2ccc3c(O)c(NC(=O)c4ccccc4)c(=O)oc3c2)OC1(C)C = ? 50 µM

====

molecular target: DNA gyrase subunit A (Escherichia coli K-12) (UniProt P0AES4); assay: Inhibition of Escherichia coli K-12 DNA gyrase A expressed in Escherichia coli DC2 assessed as compound concentration required for => 4-fold induction of luxCDABE operon by reported gene assay
The source made the active and inactive calls. No cut-off for these calls is given here.
recorded-metric: Activity

Record excerpt, results attached:
> print(dat)
                                        smi  reported.result
1  COc1cc(C(=O)Nc2c(O)c3ccc(O[C@@H]4OC(C)(C)[C@H](OC)[C@@H](O)[C@H]4OC(=O)c4ccc(C)[nH]4)c(Cl)c3oc2=O)ccc1O         inactive
2  CO[C@@H]1[C@@H](OC(=O)c2ccc(C)[nH]2)[C@@H](O)[C@H](Oc2ccc3c(O)c(NC(=O)/C=C/c4ccc(O)c(Cl)c4)c(=O)oc3c2Cl)OC1(C)C            25 µM
3  CO[C@@H]1[C@@H](OC(=O)c2ccc(C)[nH]2)[C@@H](O)[C@H](Oc2ccc3c(O)c(NC(=O)/C=C/c4ccccc4)c(=O)oc3c2C)OC1(C)C         inactive
4  CO[C@@H]1[C@@H](O)[C@@H](O)[C@H](Oc2ccc3c(O)c(NC(=O)c4ccccc4)c(=O)oc3c2C)OC1(C)C         inactive
5  CO[C@@H]1[C@@H](OC(=O)c2ccc(C)[nH]2)[C@@H](O)[C@H](Oc2ccc3c(O)c(NC(=O)c4ccccc4)c(=O)oc3c2C)OC1(C)C           6.3 µM

Notebook entry, DNA gyrase subunit A (Escherichia coli K-12) (UniProt P0AES4) assay: Activity of CO[C@@H]1[C@@H](OC(=O)c2ccc(C)[nH]2)[C@@H](O)[C@H](Oc2ccc3c(O)c(NC(=O)c4ccc(SC)cc4)c(=O)oc3c2Cl)OC1(C)C = ? 3.1 µM

Notebook entry, DNA gyrase subunit A (Escherichia coli K-12) (UniProt P0AES4) assay: Activity of CO[C@@H]1[C@@H](OC(=O)c2ccc(C)[nH]2)[C@@H](O)[C@H](Oc2ccc3c(O)c(NC(=O)c4ccc(O)c(CC=C(C)C)c4)c(=O)oc3c2Cl)OC1(C)C = ? 1.6 µM

Notebook entry, DNA gyrase subunit A (Escherichia coli K-12) (UniProt P0AES4) assay: Activity of CCCc1cc(C(=O)Nc2c(O)c3ccc(O[C@@H]4OC(C)(C)[C@H](OC)[C@@H](OC(=O)c5ccc(C)[nH]5)[C@H]4O)c(C)c3oc2=O)ccc1O = ? 3.1 µM

Notebook entry, DNA gyrase subunit A (Escherichia coli K-12) (UniProt P0AES4) assay: Activity of CO[C@@H]1[C@@H](OC(=O)c2ccc(C)[nH]2)[C@@H](O)[C@H](Oc2ccc3c(O)c(NC(=O)c4cc(C)c(O)c(C)c4)c(=O)oc3c2)OC1(C)C = ? > 100 µM

Notebook entry, DNA gyrase subunit A (Escherichia coli K-12) (UniProt P0AES4) assay: Activity of C=CCc1cc(C(=O)Nc2c(O)c3ccc(O[C@@H]4OC(C)(C)[C@H](OC)[C@@H](O)[C@H]4OC(=O)c4ccc(C)[nH]4)c(C)c3oc2=O)ccc1O = ? inactive

Notebook entry, DNA gyrase subunit A (Escherichia coli K-12) (UniProt P0AES4) assay: Activity of CO[C@@H]1[C@@H](OC(=O)c2ccc(C)[nH]2)[C@@H](O)[C@H](Oc2ccc3c(O)c(NC(=O)c4cc(C)c(O)c(C)c4)c(=O)oc3c2Cl)OC1(C)C = ? 13 µM
